// data source = patent US20160106711A1

Measured log10 IC50 values are reported for all entries that follow.
System: CRL-2813
ASSAY_INFO: Cell growth assay (sulforhodamine B), CRL-2813 cells
Format: cell-based, human
CONDITION_PARAMETERS: Homo sapiens, CRL2813, 120 h, 5 days, SRB
Record value = log10 of IC50 given in µM.

COMPOUND	log10 IC50
O=C1Nc2ccccc2C1(c1cc(C2CCCC2)ccc1O)c1cc(C2CCCC2)ccc1O [HY051]	0.49
CC(C)(C)c1ccc(OCCN2CCCCC2)c(C2(c3cc(C(C)(C)C)ccc3OCCN3CCCCC3)C(=O)Nc3ccccc32)c1 [HY172]	1.06
CC(C)(C)c1cccc(C2(c3cc(C(C)(C)C)ccc3O)C(=O)N(CCBr)c3ccccc32)c1 (centres unmarked) [HY283]	0.15
CC(C)(C)c1ccc(O)c(C2(c3cccnc3)C(=O)Nc3ccccc32)c1 (centres unmarked) [HY003]	1.06
O=C1Nc2c(ccc(F)c2F)C1(c1ccc(O)cc1)c1ccc(O)cc1 [SD132]	0.57
CC(C)(C)c1ccc(O)c(C2(c3ccc(CN4CCOCC4)cc3)C(=O)Nc3ccccc32)c1 (centres unmarked) [HY016]	0.89
COC(=O)c1cccc2c1NC(=O)C2(c1ccc(OC)cc1)c1cc(C(C)(C)C)ccc1O (centres unmarked) [Sd202]	1.09
CC(C)(C)c1ccc(O)c(C2(c3ccccc3)C(=O)Nc3ccc4ncsc4c32)c1 (centres unmarked) [Sd233]	-0.02

# log10 IC50 measured on CRL-2813 for item CC(C)(C)c1ccc(OCCN2CCNCC2)c(C2(c3ccccc3)C(=O)Nc3ccccc32)c1 (centres unmarked) [Sd049] = 1.11

Sample COCCOc1ccc(C(C)(C)C)cc1C1(c2cc(C(C)(C)C)ccc2OCCOC)C(=O)Nc2ccccc21 [HY181] , system: CRL-2813. Its log10 IC50 is -0.05

The reported log10 IC50 value, CRL-2813, for CC(C)(C)c1ccc(C2(c3cc(C(C)(C)C)ccc3O)C(=O)Nc3ccccc32)c(OCCO)c1 (centres unmarked) [HY069] reads 0.46

With CRL-2813 as the test system, CC(C)(C)c1ccc(O)c(C2(c3ccccc3)C(=O)Nc3ccc(-c4ccc(N5CCOCC5)nc4)cc32)c1 (centres unmarked) [Sd231] showed log10 IC50 of 0.40

Measured on CRL-2813, CC(C)Oc1ccc(O)c(C2(c3ccccc3)C(=O)Nc3ccccc32)c1 (centres unmarked) [HY032] has a documented log10 IC50 of 1.02

Reported log10 IC50 (CRL-2813) for entry COc1ccc(C2(c3cc(OC(C)C)ccc3OCCN3CCOCC3)C(=O)Nc3ccccc32)cc1 (centres unmarked) [Sd179] is 1.13

Case COC(=O)c1cccc2c1NC(=O)C2(c1ccc(OC)cc1)c1cc(C(C)(C)C)ccc1OCCN1CCOCC1 (centres unmarked) [Sd203] , CRL-2813, log10 IC50 recorded as 1.16

GET /values?item= CCCCc1ccc(O)c(C2(c3cc(CCCC)ccc3O)C(=O)Nc3ccccc32)c1 [HY048] &system= CRL-2813 returns log10 IC50: 0.48

Form field log10 IC50 for item COc1ccc(C2(c3cc(C(C)(C)C)ccc3O)C(=O)Nc3ccc(OC)cc32)cc1 (centres unmarked) [Sd184] on CRL-2813: 1.05

Tested on CRL-2813: CN(C)CCOc1ccc(C(C)(C)C)cc1C1(c2cc(C(C)(C)C)ccc2OCCN(C)C)C(=O)N(CCN(C)C)c2ccccc21 [HY092] . Observed log10 IC50: -0.05

Result for CN(C)CCOc1ccc(C(C)(C)C)cc1C1(c2ccccc2)C(=O)Nc2ccccc21 (centres unmarked) [Sd028] , tested on CRL-2813, log10 IC50: 0.38

Measured log10 IC50 (CRL-2813), entry O=C1Nc2ccccc2C1(c1ccccc1)c1cc(C2CCCC2)ccc1O (centres unmarked) [Compound 1289, reference compound] : 0.40
